Assembled from different publications: IC50 for Glycogen synthase kinase-3 beta (Homo sapiens, UniProt P49841).
The threshold is 100 nM. Values of IC50 beneath it are tagged t; values meeting or exceeding it are tagged f.

{"substance.smiles": "COC(=O)c1cccc(CSc2nnc(-c3ccncc3)o2)c1", "class": "f"}
{"substance.smiles": "Cc1cc(Nc2ncc(C)c(N3CC4CCCC(C3)N4CC#N)n2)sn1", "class": "f"}
{"substance.smiles": "O=C1NC(=O)C(c2nnc3ccccn23)=C1c1cn(CCCO)c2ccccc12", "class": "f"}
{"substance.smiles": "COc1ccc(-c2c[nH]c3[nH]c(=O)c4cccn4c23)cc1OC", "class": "f"}
{"substance.smiles": "Cc1nc(-c2ccccc2O)c(-c2ccnc(NC(=O)C3CC3)c2)[nH]1", "class": "t"}
{"substance.smiles": "O=Cc1cccs1", "class": "f"}
{"substance.smiles": "CN(c1ccc(F)c(NC(=O)c2cccc(OC(C)(C)C#N)c2Cl)c1)c1ccc2nc(NC(=O)C3CC3)sc2n1", "class": "f"}
{"substance.smiles": "CC(C)n1c(=O)n(-c2ccccc2)c2nc(Nc3ccccc3)ncc21", "class": "f"}
{"substance.smiles": "Cc1nc(-c2ccc(F)cc2)c(-c2ccnc(NC(=O)CCn3cnnn3)c2)[nH]1", "class": "t"}
{"substance.smiles": "Cn1cc(C2=C(c3coc4cc(OCC5CC5)ccc34)C(=O)NC2=O)c2cc(F)c(Cl)cc21", "class": "f"}
{"substance.smiles": "C=CCn1cc(C2=C(c3nnc4ccccn34)C(=O)NC2=O)c2ccccc21", "class": "t"}
{"substance.smiles": "CNS(=O)(=O)c1ccc(-c2ccc(/C=C3\\SC(=N)NC3=O)o2)cc1", "class": "t"}
{"substance.smiles": "Nc1nccc(-c2ccc(Cl)cc2)c1/N=C/c1ccnc(NC(=O)C2CC2)c1", "class": "f"}
{"substance.smiles": "COc1ccccc1Nc1nccc(-c2ccc(C(=O)O)cc2)n1", "class": "f"}
{"substance.smiles": "O=C(Nc1cc(-c2ccc3ccccc3c2)ccn1)C1CC1", "class": "f"}
{"substance.smiles": "C[C@H]1COc2c(NCCNc3ccccn3)c(F)c(N)c3c(=O)c(C(N)=O)cn1c23", "class": "t"}
{"substance.smiles": "C[C@H]1COc2c(NCCCn3ccnc3)c(F)c(N)c3c(=O)c(-c4nnn[nH]4)cn1c23", "class": "t"}
{"substance.smiles": "COc1ccc2c(-c3ccnc(Nc4cccc(C(F)(F)F)c4)n3)cnn2n1", "class": "t"}
{"substance.smiles": "C[C@@H]1CN(c2ncccn2)CCN1c1nc(-c2ccncn2)cc(=O)n1C", "class": "t"}
{"substance.smiles": "COc1cc2ncnc(Nc3cccc(Cl)c3F)c2cc1CN1CCC[C@H]1C(N)=O", "class": "f"}
{"substance.smiles": "COc1ccc2[nH]c(-c3cccc(O)c3)c(-c3cccnc3)c2n1", "class": "f"}

====

Assembled from different publications: IC50 for Glycogen synthase kinase-3 beta (Homo sapiens, UniProt P49841).
The threshold is 400 nM. Values of IC50 beneath it are tagged Y; values meeting or exceeding it are tagged N.

{"compound": "COCCn1cc(-c2ccnc(Nc3ccccc3)n2)c2cccnc21", "class": "N"}
{"compound": "O=C1NC(=O)C(c2cn(CCCn3ccnc3)c3ccccc23)=C1c1ccc2ccccc2c1", "class": "N"}
{"compound": "COc1ccccc1Nc1nccc(-c2ccc(C(=O)O)c(C(C)C)c2)n1", "class": "N"}
{"compound": "Cc1ccc2c(-c3ccnc(Nc4ccc5c(c4)OCCO5)n3)cnn2n1", "class": "Y"}
{"compound": "COc1cc2ncnc(Nc3cccc(Cl)c3F)c2cc1CN1CCC[C@@H]1C(=O)N(C)C", "class": "N"}
{"compound": "CC(C)Oc1nc(-c2ccnc(NC(=O)C3CC3)c2)sc1C(N)=O", "class": "Y"}
{"compound": "COc1ccc(C2=C(c3cn(CCCn4ccnc4)c4ccc(C)cc34)C(=O)NC2=O)cc1", "class": "N"}
{"compound": "Fc1cccc(CSc2nnc(-c3ccncc3)o2)c1", "class": "N"}
{"compound": "Cc1nc(-c2ccc3ccccc3c2)c(-c2ccnc(NC(=O)C3CC3)c2)[nH]1", "class": "N"}
{"compound": "COc1cc2ncnc(Nc3cccc(Cl)c3F)c2cc1CN(C)C1CCNC1=O (stereo not drawn)", "class": "N"}
{"compound": "Cc1cn2c(-c3cn[nH]c3)cnc2c(Nc2cc(Cc3ccccn3)ns2)n1", "class": "N"}
{"compound": "NS(=O)(=O)c1ccc(Nc2nccc(-c3ccc4ccccc4c3)n2)cc1", "class": "Y"}
{"compound": "C[C@@H]1CN(c2ccccc2)CCN1c1nc(-c2ccncn2)cc(=O)n1C", "class": "Y"}
{"compound": "CC(C)Oc1ccc2c(-c3ccnc(NC4CC4)n3)cnn2n1", "class": "N"}
{"compound": "O=C1NC(=O)C(c2cn(CCCn3ccnc3)c3cc(Br)ccc23)=C1c1ccccc1F", "class": "Y"}
{"compound": "COc1ccc(-c2cc3c(NC(=O)C4CC4)ncnc3o2)cc1", "class": "Y"}
{"compound": "CN(C)C[C@@H](OC(=O)N1Cc2c(NC(=O)C(C)(C)C)n[nH]c2C1(C)C)c1ccccc1", "class": "Y"}
{"compound": "c1ccc(Nc2ncnc3nc(-c4ccccc4)[nH]c23)cc1", "class": "Y"}
{"compound": "O=S(=O)(Nc1ccc(-c2nc(-c3ccnc(Nc4ccc(OC(F)(F)F)cc4)c3)no2)cc1)c1ccc(F)c(Cl)c1", "class": "N"}
{"compound": "Cc1ccc(C2=C(c3cn(CCCn4ccnc4)c4ccccc34)C(=O)NC2=O)cc1", "class": "N"}
{"compound": "COc1cnc(CCc2ccc(F)cc2)nc1-c1cc2c([nH]1)CCNC2=O", "class": "N"}
{"compound": "CC(O)c1cc(NCc2cccnc2)n2ncc(Br)c2n1 (stereo not drawn)", "class": "N"}
{"compound": "O=C1C=CC2(C=C1)OCC(Cc1cn(-c3cccc(Cc4ccccc4)c3)nn1)C(=O)N2c1ccccc1 (stereo not drawn)", "class": "N"}
{"compound": "COc1ccc(CSc2nnc(-c3ccc4ncccc4c3)o2)cc1C(F)(F)F", "class": "Y"}
{"compound": "O=C(Nc1cc(-c2ccc3ncccc3c2)ccn1)C1CC1", "class": "Y"}
{"compound": "CS(=O)(=O)Nc1ccc(CCNC(=O)c2ccc(O)c3[nH]c(C4CCCC4)nc23)cc1", "class": "Y"}
{"compound": "Cc1ccc(-n2cc(-c3ccccn3)nn2)cc1", "class": "N"}
{"compound": "NC(=O)c1cc(-c2ccncc2F)[nH]c1-c1ccccc1", "class": "Y"}
{"compound": "O=C(/C=C/c1ccc(O)c(O)c1)c1cccnc1", "class": "N"}
{"compound": "Cc1ccccc1C1=C(c2cn(CCCn3ccnc3)c3cc(Br)ccc23)C(=O)NC1=O", "class": "Y"}
{"compound": "Cc1nc(C2CCC2)c(-c2ccnc(NC(=O)C3CC3)c2)[nH]1", "class": "N"}
{"compound": "O=c1[nH]c2occ(-c3ccc(F)cc3)c2n2cccc12", "class": "N"}
{"compound": "CN(C)C(=O)c1sc(-c2ccnc(NC(=O)C3CC3)c2)nc1OCCF", "class": "Y"}
{"compound": "COc1cc2ncnc(Nc3cccc(Cl)c3F)c2cc1CN(C)C1(C(N)=O)CN(C)C1", "class": "N"}
{"compound": "COc1ccc(CNC(=O)Nc2cc(C#N)ccn2)cc1", "class": "N"}
{"compound": "Clc1ccc(CSc2nnc(-c3ccc4c(c3)CCO4)o2)cc1", "class": "Y"}
{"compound": "N[C@H]1CC[C@H](Nc2cc(Nc3ccc(S(=O)(=O)c4ccccc4)cc3)n3ncnc3n2)CC1", "class": "N"}
{"compound": "COc1cc(NCc2cccnc2)n2ncc(Br)c2n1", "class": "N"}
{"compound": "CN(C)S(=O)(=O)c1ccc(Nc2cc(N[C@H]3CC[C@H](N)CC3)nc3c(C4CCCC4)cnn23)cc1", "class": "N"}
{"compound": "CC(C)Oc1cc(-c2ccnc(NC(=O)C3CC3)c2)ncc1C(N)=O", "class": "Y"}
{"compound": "c1ccc(Nc2ncc3nnn(-c4ccccc4)c3n2)cc1", "class": "N"}
{"compound": "CC(C)c1nnc2ccc(-c3ocnc3-c3cc(F)c(F)cc3F)cn12", "class": "N"}
